System: SW-620 colon
Assay Notes: NCI-60 one-dose screen, 48 h
Condition Set: 10 µM unless noted
The panel holds about 83,000 compounds, 20% with a hit somewhere; the sample as a whole holds those more often. Activity calls are given as the source filed them. Rule for the calls: active = growth percent below 10; inactive = the rest.
Write down the outcome that applies. Available outcomes: active, inactive

Record excerpt, results attached:
>  <Compound>
CCOC(=O)c1c(SC)nn(-c2cc(=O)[nH]c3ccc(Br)cc23)c1N

>  <Assayed Target>
SW-620 colon

>  <Cat>
inactive

$$$$
>  <Compound>
CCN(CC)CCCC(Nc1c2ccc(Cl)cc2nc2ccc(OC)cc12)c1ccc(Cl)cc1 (stereo unspecified)

>  <Assayed Target>
SW-620 colon

>  <Cat>
active

$$$$

IN: # outcome recorded in this test, key = `COc1cccc(/C=C2\COc3ccc(-c4ccccc4)cc3C2=O)c1`
OUT: active

IN: # outcome recorded in this test, key = CC(C)(O)C1CCCN1C(=O)c1ccccc1I (stereo unspecified)
OUT: inactive

IN: # outcome recorded in this test, key = COc1cc(NCC(C)(O)CN(CC(C)C)CC(C)C)c2nc(C)ccc2c1 (stereo unspecified)
OUT: inactive

IN: # outcome recorded in this test, key = `Cc1ccccc1C(c1ccccc1)c1ccccc1C`
OUT: inactive
